The reported numbers originate from ChEMBL document CHEMBL1671826.

TARGET DESC: Histone deacetylase 7 (Homo sapiens, UniProt Q8WUI4)
Sequence (Q8WUI4 whole entry): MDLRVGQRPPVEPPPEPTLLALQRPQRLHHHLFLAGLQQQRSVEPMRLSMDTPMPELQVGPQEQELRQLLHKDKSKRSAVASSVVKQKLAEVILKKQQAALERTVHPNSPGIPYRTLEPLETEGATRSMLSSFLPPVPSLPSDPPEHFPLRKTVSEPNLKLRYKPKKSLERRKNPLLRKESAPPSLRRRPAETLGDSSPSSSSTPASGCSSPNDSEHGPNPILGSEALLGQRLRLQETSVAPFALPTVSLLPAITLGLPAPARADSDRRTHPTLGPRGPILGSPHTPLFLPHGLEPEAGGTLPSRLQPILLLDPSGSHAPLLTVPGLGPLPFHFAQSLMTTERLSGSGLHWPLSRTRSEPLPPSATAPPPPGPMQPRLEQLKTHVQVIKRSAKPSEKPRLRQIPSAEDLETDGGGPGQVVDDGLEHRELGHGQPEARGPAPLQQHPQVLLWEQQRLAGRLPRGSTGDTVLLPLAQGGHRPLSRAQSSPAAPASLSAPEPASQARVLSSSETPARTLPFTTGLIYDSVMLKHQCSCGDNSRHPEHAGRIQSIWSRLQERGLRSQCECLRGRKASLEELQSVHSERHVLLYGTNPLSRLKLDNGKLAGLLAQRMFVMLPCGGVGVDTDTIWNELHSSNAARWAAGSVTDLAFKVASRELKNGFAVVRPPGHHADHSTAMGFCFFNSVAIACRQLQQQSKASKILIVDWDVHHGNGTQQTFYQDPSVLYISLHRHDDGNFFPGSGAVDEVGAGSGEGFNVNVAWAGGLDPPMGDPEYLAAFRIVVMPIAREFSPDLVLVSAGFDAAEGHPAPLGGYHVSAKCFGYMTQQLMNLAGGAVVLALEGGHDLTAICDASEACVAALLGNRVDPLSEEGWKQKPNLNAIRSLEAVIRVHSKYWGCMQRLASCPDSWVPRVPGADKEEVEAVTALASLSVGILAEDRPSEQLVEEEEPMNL
PROTOCOL SUMMARY: Inhibition of human recombinant HDAC7
pIC50: −log10 of the molar value.
Can you tell me pIC50 for the items I'm about to list?

Known results for compounds:
| COMPOUND | READOUT LABEL | OBS VALUE |
| --- | --- | --- |
| CCCC(=O)O | pIC50 | < 2.70 |
| CCCC(CCC)C(=O)O | pIC50 | < 2.70 |
| O=C(O)CCCc1ccccc1 | pIC50 | < 2.70 |

Hello, please tell me recorded pIC50 for this one: CCCC(=O)NO [BUTYRYLHYDROXAMIC ACID]
< 3.00

* * *

TARGET DESC: Histone deacetylase 4 (Homo sapiens, UniProt P56524)
Sequence (P56524 whole entry): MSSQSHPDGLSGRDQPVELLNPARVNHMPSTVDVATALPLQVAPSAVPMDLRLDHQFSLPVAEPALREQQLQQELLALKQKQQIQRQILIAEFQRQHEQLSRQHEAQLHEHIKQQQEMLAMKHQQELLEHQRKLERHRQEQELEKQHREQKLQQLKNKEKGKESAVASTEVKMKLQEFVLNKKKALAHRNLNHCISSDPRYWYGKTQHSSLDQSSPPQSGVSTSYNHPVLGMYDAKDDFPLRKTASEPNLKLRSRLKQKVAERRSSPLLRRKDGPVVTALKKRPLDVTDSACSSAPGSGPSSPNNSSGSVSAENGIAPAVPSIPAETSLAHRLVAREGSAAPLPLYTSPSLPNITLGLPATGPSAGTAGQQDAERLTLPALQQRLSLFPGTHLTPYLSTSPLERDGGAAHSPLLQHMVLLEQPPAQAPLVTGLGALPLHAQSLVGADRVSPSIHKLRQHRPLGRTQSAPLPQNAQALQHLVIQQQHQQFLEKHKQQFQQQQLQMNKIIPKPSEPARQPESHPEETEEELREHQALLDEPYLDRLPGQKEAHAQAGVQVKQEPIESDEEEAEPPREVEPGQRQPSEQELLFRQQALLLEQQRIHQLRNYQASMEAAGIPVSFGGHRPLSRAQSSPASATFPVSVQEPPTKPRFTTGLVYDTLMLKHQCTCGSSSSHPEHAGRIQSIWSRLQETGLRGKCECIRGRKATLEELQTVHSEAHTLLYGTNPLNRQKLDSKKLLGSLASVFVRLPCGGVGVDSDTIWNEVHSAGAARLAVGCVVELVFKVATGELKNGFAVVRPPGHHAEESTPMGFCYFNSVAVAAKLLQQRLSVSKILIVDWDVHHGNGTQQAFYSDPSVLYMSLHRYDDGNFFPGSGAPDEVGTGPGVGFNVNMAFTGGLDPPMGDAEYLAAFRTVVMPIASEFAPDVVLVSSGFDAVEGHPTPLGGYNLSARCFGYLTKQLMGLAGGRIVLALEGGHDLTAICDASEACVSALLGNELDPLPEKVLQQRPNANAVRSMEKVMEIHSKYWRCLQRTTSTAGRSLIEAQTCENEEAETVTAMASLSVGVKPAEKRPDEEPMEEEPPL
PROTOCOL SUMMARY: Inhibition of human recombinant HDAC4
pIC50: −log10 of the molar value.
READOUT LABEL: pIC50

Known results for molecules:
| MOLECULE | OBS VALUE |
| --- | --- |
| O=C(O)CCCc1ccccc1 | < 2.70 |
| O=C(CCCc1ccccc1)NO [PHENYLBUTYRYLHYDROXAMIC ACID] | 3.85 |
| CCCC(CCC)C(=O)NO [VALPROPYLHYDROXAMIC ACID] | 3.77 |

Give pIC50 for each of the items listed below.
1. CCCC(=O)NO [BUTYRYLHYDROXAMIC ACID]
2. CCCC(CCC)C(=O)O [VALPROIC ACID]
3. CCCC(=O)O [BUTYRIC ACID]

["< 2.70", "< 2.70", "< 2.70"]
